Just for reference, patent US20120316071A1 is where these values come from.

Listed below: Signal/Noise values for each entry.
# TESTED ON: T1, Recombinant Human DLL4 (human, UniProt Q9NR61 27-524)
# T1 construct: Bought recombinant human DLL4 (R&D Systems Cat#1506-D4/CF), coated on the plate; also called delta-like protein 4; rHuman DLL4
# ASSAY TEXT: ECL (MSD) 96-well plate assay, DLL4 coated at 15 ug/mL, Fab 0.02 uM; signal over blank
Simply state the number, no unit and no words.

{"BINDER": "Fab VH5-51_IGHD5-18*01>3_IGHJ4*01 G104M & V3-4_IGLJ1*01 (Fab, V domains shown, Fab; VH-CH1 (His6/Flag, Plasmid A) and VL-lambda CL (Plasmid E)) VH: EVQLVQSGAEVKKPGESLKISCKGSGYSFTSYWIGWVRQMPGKGLEWMGIIYPGDSDTRYSPSFQGQVTISADKSISTAYLQWSSLKASDTAMYYCARRGYSYMYDYFDYWGQGTLVTVSS VL: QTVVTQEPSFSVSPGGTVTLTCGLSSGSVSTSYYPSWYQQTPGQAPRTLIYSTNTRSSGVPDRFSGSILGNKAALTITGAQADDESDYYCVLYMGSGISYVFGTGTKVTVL", "Signal/Noise": 12.3}

We now examine a further binder.
Tell me measured Signal/Noise for Fab VH5-51_IGHD5-18*01>3_IGHJ4*01 G100K & V3-4_IGLJ1*01 (Fab, V domains shown, Fab; VH-CH1 (His6/Flag, Plasmid A) and VL-lambda CL (Plasmid E)) VH: EVQLVQSGAEVKKPGESLKISCKGSGYSFTSYWIGWVRQMPGKGLEWMGIIYPGDSDTRYSPSFQGQVTISADKSISTAYLQWSSLKASDTAMYYCARRKYSYGYDYFDYWGQGTLVTVSS VL: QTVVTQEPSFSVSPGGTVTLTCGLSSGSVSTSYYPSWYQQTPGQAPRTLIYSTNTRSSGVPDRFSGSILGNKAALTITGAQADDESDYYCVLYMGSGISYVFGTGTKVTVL please.
72.6
